Data credit: patent US6403586B1

{"columns": ["Mol", "melting point"],
 "data": [
  ["CNC(=O)c1cc(-c2ccc(OC)cc2)nn(Cc2ccc(Cl)cc2Cl)c1=O", "154.2 to 156.2 °C"],
  ["COc1ccc(-c2cc(C(N)=O)c(=O)n(CC=Cc3ccc(Cl)cc3)n2)cc1", "195.1 to 195.5 °C"],
  ["COc1ccc(-c2cc(C(=O)Nc3ccccc3)c(=O)n(CC3CC3)n2)cc1", "162.8 to 163.3 °C"],
  ["COc1ccc(-c2cc(NC(=O)OCc3ccc(SC)cc3)c(=O)n(CC=Cc3ccc(Cl)cc3)n2)cc1", "187.6 to 188.7 °C"],
  ["COC(=O)c1cc(-c2ccc(OC)c(OC)c2)nn(CC(C)C)c1=O", "104.2 to 105.5 °C"],
  ["CCCNC(=O)c1cc(-c2ccc(OC)cc2)nn(CC2CC2)c1=O", "101.3 to 101.6 °C"],
  ["COc1ccc(-c2cc(C(=O)O)c(=O)n(CC=Cc3ccc(Cl)cc3)n2)cc1", "222.6 to 224 °C (dec.)"],
  ["COc1ccc(-c2cc(NS(C)(=O)=O)c(=O)n(CC3CC3)n2)cc1", "203.3 to 203.9 °C"],
  ["COC(=O)c1cc(-c2ccc(SC)cc2)nn(CC=Cc2ccc(Cl)cc2)c1=O", "123.3 to 126.2 °C"],
  ["COc1ccc(-c2cc(C(=O)O)c(=O)n(CC=C(C)C)n2)cc1", "153.5 to 156.6 °C"],
  ["COc1ccc(-c2cc(NC(C)=O)c(=O)n(CC=Cc3ccc(Cl)cc3)n2)cc1", "158.7 to 161.9 °C"],
  ["COc1ccc(-c2cc(N)c(=O)n(Cc3ccccc3)n2)cc1", "115.1 to 115.6 °C"],
  ["CNc1cc(-c2ccc(OC)cc2)nn(CC=Cc2ccc(Cl)cc2)c1=O", "148.4 to 149.2 °C"],
  ["COC(=O)c1cc(-c2ccc(OC)c(F)c2)nn(CC=Cc2ccc(Cl)cc2)c1=O", "131.3 to 132.3 °C"],
  ["CNC(=O)c1cc(-c2ccc(OC)cc2)nn(CC(=O)NCc2ccccn2)c1=O", "194.7 to 195.8 °C"],
  ["CNC(=S)c1cc(-c2ccc(OC)cc2)nn(CC(C)C)c1=O", "116 to 116.6 °C"],
  ["COC(=O)c1cc(-c2ccc(SC)cc2)nn(CC2CC2)c1=O", "100.2 to 101.8 °C"],
  ["CCOC(=O)c1cc(-c2ccc(OC)cc2)nn(CC=Cc2ccc(Cl)cc2)c1=O", "127 to 127.9 °C"]
]}

###

Listing: melting point of selected compounds

{"columns": ["Compound", "melting point"],
 "data": [
  ["COc1ccc(-c2cc(C(=O)NCc3ccccc3)c(=O)n(CC3CCCC3)n2)cc1 [Example 75]", "107.6 to 108.1 °C"],
  ["COc1ccc(-c2cc(C(N)=O)c(=O)n(CC3CCCC3)n2)cc1 [Example 40]", "182.2 to 183.3 °C"],
  ["CNC(=O)c1cc(-c2ccc(OC)cc2)nn(CCO)c1=O [Example 49]", "160.3 to 160.6 °C"],
  ["CCOC(=O)Nc1cc(-c2ccc(OC)cc2)nn(CC=Cc2ccc(Cl)cc2)c1=O [Example 87]", "171.2 to 172.1 °C"],
  ["COC(=O)c1cc(-c2ccc(OC)cc2)nn(C)c1=O [Example 1]", "109.2 to 109.5 °C"],
  ["COc1ccc(-c2cc(C(=O)NCc3ccccn3)c(=O)n(C)n2)cc1 [Example 78]", "122.4 to 122.9 °C"],
  ["COc1ccc(-c2cc(C(=O)NCc3ccccc3)c(=O)n(CC3CC3)n2)cc1 [Example 68]", "119.7 to 120.1 °C"],
  ["COC(=O)c1cc(-c2ccc(OC)cc2)nn(Cc2ccc(NC(=O)c3cccnc3)cc2)c1=O [Example 27]", "235.7 to 236.9 °C (dec.)"],
  ["COC(=O)c1cc(-c2ccc(OC)c(Cl)c2)nn(CC=Cc2ccc(Cl)cc2)c1=O [Example 34]", "179.7 to 181.6 °C"],
  ["COc1ccc(-c2cc(C(=O)NCc3ccccn3)c(=O)n(CC3CC3)n2)cc1 [Example 69]", "98.6 to 99.3 °C"],
  ["CNC(=O)c1cc(-c2ccc(OC)cc2)nn(Cc2ccc(NC(=O)c3cccnc3)cc2)c1=O [Example 81]", "226.7 to 227.6 °C (dec.)"],
  ["COc1ccc(-c2cc(C(=O)NCc3ccccc3)c(=O)n(C)n2)cc1 [Example 77]", "144.8 to 145.8 °C"],
  ["CNC(=O)c1cc(-c2ccc(OC)cc2)nn(CC2CC2)c1=O [Example 61]", "136.6 to 137.5 °C"],
  ["COc1ccc(-c2cc(NC(=O)OCc3ccccc3)c(=O)n(CC=Cc3ccc(Cl)cc3)n2)cc1 [Example 90]", "190.5 to 191.7 °C"],
  ["COC(=O)c1cc(-c2ccc(OC)c(F)c2)nn(CC2CC2)c1=O [Example 18]", "139.6 to 140.7 °C"],
  ["CNC(=S)c1cc(-c2ccc(OC)c(F)c2)nn(CC2CC2)c1=O [Example 129]", "178 to 178.5 °C"],
  ["CCOC(=O)c1cc(-c2ccc(OC)cc2)nn(CC(C)C)c1=O [Example 10]", "83 to 83.3 °C"],
  ["CCOC(=O)Nc1cc(-c2ccc(OC)cc2)nn(CC=C(C)C)c1=O [Example 93]", "130.2 to 131.2 °C"]
]}
